# system: Transient receptor potential cation channel subfamily V member 4 (Homo sapiens, UniProt Q9HBA0)
# Sequence (Q9HBA0 whole entry): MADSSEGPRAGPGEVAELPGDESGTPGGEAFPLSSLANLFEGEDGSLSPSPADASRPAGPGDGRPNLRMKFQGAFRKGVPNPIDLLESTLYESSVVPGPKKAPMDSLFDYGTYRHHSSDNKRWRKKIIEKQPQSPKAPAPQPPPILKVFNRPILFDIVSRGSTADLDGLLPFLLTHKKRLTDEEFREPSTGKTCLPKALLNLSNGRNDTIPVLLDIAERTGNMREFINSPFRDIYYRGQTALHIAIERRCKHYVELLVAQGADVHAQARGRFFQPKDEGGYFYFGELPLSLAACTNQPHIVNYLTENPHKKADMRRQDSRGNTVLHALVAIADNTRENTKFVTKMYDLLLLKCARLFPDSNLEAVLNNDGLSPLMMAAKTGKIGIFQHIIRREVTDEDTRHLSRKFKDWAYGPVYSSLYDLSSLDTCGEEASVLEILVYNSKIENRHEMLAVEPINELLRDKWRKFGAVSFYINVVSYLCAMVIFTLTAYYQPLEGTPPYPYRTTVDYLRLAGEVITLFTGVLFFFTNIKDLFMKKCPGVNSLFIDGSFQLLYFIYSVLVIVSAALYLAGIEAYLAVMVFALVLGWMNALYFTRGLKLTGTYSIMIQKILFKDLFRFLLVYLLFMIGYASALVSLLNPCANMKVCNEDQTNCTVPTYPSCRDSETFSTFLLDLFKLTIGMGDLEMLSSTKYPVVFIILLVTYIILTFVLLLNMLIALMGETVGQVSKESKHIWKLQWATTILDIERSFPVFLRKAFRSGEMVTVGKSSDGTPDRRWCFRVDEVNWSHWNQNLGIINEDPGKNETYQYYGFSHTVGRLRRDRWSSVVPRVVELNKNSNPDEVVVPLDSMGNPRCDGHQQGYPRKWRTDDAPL
# method notes: Antagonist activity at recombinant human TRPV4 expressed in CHOK1 cells assessed as inhibition of hypotonicity-induced activation pretreated for 5 mins followed by hypotonic solution addition measured for 5 mins by FLIPR assay
# Format: cell-based
Rule for this label: met means IC50 is less than 1 nM; not met means IC50 is at least 1 nM.

Study these solved cases before continuing.
compound smiles	discrete label
Cc1nc(C)c(-c2csc(Nc3ccc(C(=O)N4C5CCC4CN(c4ccc(C(F)(F)F)nn4)C5)cn3)n2)s1	not met
Cc1nc(C)c(-c2csc(Nc3ccc(C(=O)N4C5CCC4CN(c4ccc(C(F)(F)F)cn4)C5)cn3)n2)s1	not met
Cc1nc(C)c(-c2csc(Nc3ccc(C(=O)N4C5CCC4CN(c4cnc(C(F)(F)F)nc4)C5)cn3)n2)s1	not met
Cc1nc(C)c(-c2csc(Nc3ccc(C(=O)N4C5CCC4CN(c4cnc(C(F)(F)F)cn4)C5)cn3)n2)s1	met

Continue with the compound presented below.
(Q) In the record for Cc1c(C(=O)Nc2cccc(C(F)(F)F)c2)cc(-c2ccccc2)n1CCCN1CCOCC1 , is IC50 less than 1 nM?
(A) not met
